- Tested on: Wolbachia pipientis
- TEST_PROTOCOL: Anti-Wolbachia Cell-Based Screen
- Assay type: functional
- Design: scale not given: in the data most compounds retested in dose-response had high values
- CONDITION_SUMMARY: 5 µM
The campaign covered roughly 48,000 compounds. About 13,000 (27%) showed an effect of 50% or more. The list shows a part of the results.
So I've got a bunch of molecules here, and I need their Percent Effect values.
Numbers only, in %.

Worked cases, answers included:
In [3]: df
Out[3]:
                                   molecule         study_target        quantity  assay_result
0  Cc1nn(C)c(C)c1C1CCCN1Cc1cn2ccsc2n1 (stereo unspecified)  Wolbachia pipientis  Percent Effect          7.69
1  O=C(O)C1(Cc2ccc(F)cc2F)CCCN(Cc2ccccn2)C1 (stereo unspecified)  Wolbachia pipientis  Percent Effect        -12.03
2  COCC(=O)N1CCC2(COCc3cnc(-c4ccccc4)nc32)C1 (stereo unspecified)  Wolbachia pipientis  Percent Effect        -5.335

For every listed record, write down its Percent Effect.
1. Cc1nc(CN2CCN(C3CCOC3)Cc3cccnc32)cs1.O=C(O)C(F)(F)F.O=C(O)C(F)(F)F.O=C(O)C(F)(F)F (stereo unspecified)
2. Cc1nnc(CN2CCCC2c2ccc(Cl)c(Cl)c2)o1 (stereo unspecified)
3. O=C(CC1CC1)N1CCC2(COCc3cnc(-c4ccccc4)nc32)C1 (stereo unspecified)
4. Cc1nc(CN2C(=O)CC[C@@H]3[C@H]2CCN3C2CCOCC2)cs1.O=C(O)C(F)(F)F
5. O=C(CC1CC1)N1CCC2(COCc3cnc(-c4cccnc4)nc32)C1 (stereo unspecified)

# output
1. -13.84
2. -0.8555
3. -2.156
4. 88.53
5. 110.1

Look at each molecule and report its Percent Effect.
1. c1cncc(NCCCNC2CCSC2)c1 (stereo unspecified)
2. N#CC1(C(=O)N2CCN(Cc3ccon3)CC2)CCC1
3. Cc1nn(C)cc1CN1CCCCCC1c1ccc(Cl)cc1 (stereo unspecified)

# output
1. 8.573
2. -11.71
3. 98.47

Below are 5 molecules. Give each one its Percent Effect.
1. Cc1nn(C)cc1CN1CCCCCC1c1ccccc1Cl (stereo unspecified)
2. Cc1nc(CN2C(=O)CC[C@@H]3[C@H]2CCN3C(=O)c2ccccn2)cs1.O=C(O)C(F)(F)F
3. COCCC(=O)N1CCC2(COCc3cnc(-c4cccnc4)nc32)C1 (stereo unspecified)
4. O=C(C1CCC1)N1CCC2(COCc3cnc(-c4cccnc4)nc32)C1 (stereo unspecified)
5. Cc1nc(CN2C(=O)CC[C@@H]3[C@H]2CCN3C(=O)C2CCOCC2)cs1

# output
[134.4, -0.4991, 82.83, -1.349, -12.01]

----------
For each record, write down the corresponding Percent Effect.
- Tested on: Wolbachia pipientis
- TEST_PROTOCOL: Anti-Wolbachia Cell-Based Screen
- Type: functional
- Design: scale not given: in the data most compounds retested in dose-response had high values
- CONDITION_SUMMARY: 5 µM
The campaign covered roughly 48,000 compounds. About 13,000 (27%) showed an effect of 50% or more. The list shows a part of the results.
Numbers only, in %.

Some entries whose results are on file:
                                   molecule        quantity  assay_result
0  CC(C)N(C)Cc1cnc2n1CCN(C(=O)Cc1cccs1)C2C.O=C(O)C(F)(F)F (stereo unspecified)  Percent Effect        0.7731
1  O=c1cc(CN2CCCC2)nc2n1CCCN(S(=O)(=O)C1CC1)C2  Percent Effect         95.22
2       O=c1cc(CN2CCCC2)nc2n1CCCN(CC1CC1)C2  Percent Effect         112.4
3  CC(C)N(C)Cc1cnc2n1CCN(CCc1ccccc1)C2.O=C(O)C(F)(F)F.O=C(O)C(F)(F)F  Percent Effect         1.323
4     O=c1cc(Cn2ccnc2)nc2n1CCCN(Cc1ccco1)C2  Percent Effect         5.269

Lab note: next molecule to report on.
# input Item `O=c1cc(Cn2cncn2)nc2n1CCCN(CC1CC1)C2` has what recorded Percent Effect?
# output -9.621
